Known activity at 0.063 µM of a selection of compounds
Biological target: B. taurus (heart) complex I (Bos taurus, UniProt P03887+P17694+P42026)
Sequence (P03887 whole entry): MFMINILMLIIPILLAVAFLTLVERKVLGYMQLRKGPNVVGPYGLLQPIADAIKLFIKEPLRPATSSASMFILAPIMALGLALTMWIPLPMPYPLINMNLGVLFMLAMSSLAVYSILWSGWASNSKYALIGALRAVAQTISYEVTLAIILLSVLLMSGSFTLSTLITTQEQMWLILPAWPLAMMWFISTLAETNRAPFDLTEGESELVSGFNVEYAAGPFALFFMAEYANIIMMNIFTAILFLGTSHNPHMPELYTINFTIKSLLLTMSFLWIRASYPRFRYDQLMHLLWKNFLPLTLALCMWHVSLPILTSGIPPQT
Sequence (P17694 34-463): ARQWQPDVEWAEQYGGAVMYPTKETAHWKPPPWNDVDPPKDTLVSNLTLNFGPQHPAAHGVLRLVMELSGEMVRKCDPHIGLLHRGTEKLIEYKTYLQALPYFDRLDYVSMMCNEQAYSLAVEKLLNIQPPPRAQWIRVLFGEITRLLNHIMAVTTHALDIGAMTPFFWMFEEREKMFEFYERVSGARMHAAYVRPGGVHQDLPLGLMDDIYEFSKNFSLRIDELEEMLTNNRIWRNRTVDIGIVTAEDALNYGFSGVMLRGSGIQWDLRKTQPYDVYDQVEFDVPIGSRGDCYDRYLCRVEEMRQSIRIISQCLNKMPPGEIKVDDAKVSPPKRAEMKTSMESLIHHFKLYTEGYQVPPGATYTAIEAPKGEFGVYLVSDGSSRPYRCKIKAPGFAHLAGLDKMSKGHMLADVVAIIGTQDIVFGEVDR
Sequence (P42026 38-216): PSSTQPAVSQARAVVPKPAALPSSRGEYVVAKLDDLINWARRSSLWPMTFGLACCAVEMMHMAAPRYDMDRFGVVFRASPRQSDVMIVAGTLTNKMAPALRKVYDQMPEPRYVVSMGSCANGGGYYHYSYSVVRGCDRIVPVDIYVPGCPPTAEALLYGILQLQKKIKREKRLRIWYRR
Test: biochemical
Assay type: biochemical
Conditions: B. taurus; dose 0.063 µM; Mean of replicates; read-out: Complex I activity, dose-response data
Form entry: value (%) — number only.

Before answering, review these 3 worked examples.
Compound	Quantity Kind	Recorded Measurement
COc1cc2c(cc1OC)C(/C=C/c1ccc(N(C)C)cc1)=NCC2 [NPD6303]	activity at 0.063 µM	90.4
CC(C)Cc1ccc(C(C)c2nc3ccccc3n2C)cc1 (stereo not shown) [NPD8790]	activity at 0.063 µM	103
COc1cc2c(cc1OC)C(c1ccc(-c3ccc(Cl)c(Cl)c3)o1)=NCC2 [NPD3577]	activity at 0.063 µM	111

Q: Given the compound COc1cc2c(cc1OC)C(C(C)c1ccc(CC(C)C)cc1)=NCC2 (stereo not shown) [NPD10504] , what is its reported activity at 0.063 µM?
A: 90.7

Data credit: paper PMC11079024
